Parameter pIC50: see the listing below.
Target: IDH1 R132H (Homo sapiens (Human), UniProt O75874, R132H)
Sequence (O75874 whole entry R132H): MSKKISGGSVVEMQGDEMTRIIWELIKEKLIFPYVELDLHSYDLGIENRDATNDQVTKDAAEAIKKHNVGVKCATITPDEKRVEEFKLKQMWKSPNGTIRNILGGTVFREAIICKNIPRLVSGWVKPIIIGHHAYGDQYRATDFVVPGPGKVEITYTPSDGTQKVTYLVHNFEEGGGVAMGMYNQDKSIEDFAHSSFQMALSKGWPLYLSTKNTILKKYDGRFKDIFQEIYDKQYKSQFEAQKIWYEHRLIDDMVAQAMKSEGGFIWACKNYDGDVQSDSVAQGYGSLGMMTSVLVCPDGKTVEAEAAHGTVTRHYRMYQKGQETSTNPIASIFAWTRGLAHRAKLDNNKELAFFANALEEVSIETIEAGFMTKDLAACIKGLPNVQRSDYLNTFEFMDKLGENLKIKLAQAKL
Test: Effect on the enzyme activity of IDH1 at the molecular level (NADPH consumption, diaphorase/resazurin)
Conditions: α-KG 1 mM, NADPH 4 μM, 60 min room temperature
pIC50: −log10 of the molar value.

Give a short answer stating reported pIC50 for CC(C)[C@H]1CN(C)C(=O)N1c1ccnc(N[C@@H](C)c2cn(-c3cccc(C(F)(F)F)c3)cn2)n1 [Compound 59] .
6.00 to 7.00

Return reported pIC50. Input compound: CC(C)[C@H]1CN(C)C(=O)N1c1ccnc(NC2(c3cn(-c4ccccc4Cl)cn3)CC2)n1 [Compound 51]
6.00 to 7.00

Give the reported value of pIC50 for this record: C[C@H](Nc1nccc(N2C(=O)NCC2(C)C)n1)c1cn(-c2ccc(Cl)cc2)cn1 [Compound 12]
6.00 to 7.00

Return pIC50 (reported value) for this compound: CC(C)[C@H]1C(C)NC(=O)N1c1ccnc(N[C@@H](C)c2cn(-c3ccc(Cl)cc3)cn2)n1 (single isomer, unassigned) [Compound 86]
> 7.00

State its pIC50 for this compound: CC(C)[C@H]1C(C)N(C)C(=O)N1c1ccnc(N[C@@H](C)c2cn(-c3ccc(Cl)cc3)cn2)n1 (single isomer, unassigned) [Compound 90]
> 7.00

Annotate the compound Cc1ccc(-n2cnc(C3(Nc4nccc(N5C(=O)NC[C@@H]5C(C)C)n4)CC3)c2)cn1 [Compound 29] with its measured pIC50.
6.00 to 7.00

Continuing:
Fill in reported pIC50 for this entry: CC(C)[C@H]1C(C)NC(=O)N1c1ccnc(N[C@@H](C)c2cn(-c3ccc(C(F)(F)F)cc3)cn2)n1 (single isomer, unassigned) [Compound 93]
> 7.00
